System: RPMI-8226 leukemia
Test details: NCI-60 one-dose screen, 48 h
Condition: 10 µM unless noted
This is part of a sample that, as a whole, favours compounds with a hit. Of some 83,000 tested, about 20% had one in any assay. Activity calls are given as the source filed them. The calls were made as follows: active = growth percent below 10; inactive = the rest.
A correct response names exactly one class from 1.0 = active, 0.0 = inactive

1. Cn1cc(-c2csc(-c3cn(C(=O)OC(C)(C)C)c4ccccc34)n2)c2ccnc(Cl)c21; 0.0
2. Nc1ccc([N+](=O)[O-])cc1N=C/C=C/c1ccccc1; 0.0
3. Cc1ccc(C)c2c1C(O)(C#Cc1ccccc1)c1ccccc1C2(O)C#Cc1ccccc1 (stereo unspecified); 0.0
4. COc1ccc(/C(C)=C(\c2ccc(Cl)cc2)c2ccc(OCCN3CCCC3)cc2)cc1; 1.0
5. CCCCCCC(CCCC)COC(=O)c1ccc(Cl)cc1 (stereo unspecified); 0.0
6. CCn1cc(C2=C(c3cn(C)c4ncccc34)C(=O)NC2=O)c2cccnc21; 0.0
7. COc1cc2nc(Nc3cccc(F)c3)nc(Nc3cc(C)[nH]n3)c2cc1OC; 1.0
8. O=C(Cn1nnc2ccccc21)Nc1ccc(-c2nc3ccccc3s2)cc1; 0.0
9. CCCCCCOC(=O)CC1=C(C)/C(=C/c2[nH]c(-c3ccc[nH]3)cc2OC)N=C1C; 1.0
10. Cc1cc2nc3c4ccccc4n(CCN(C)C)c3nc2cc1C; 1.0

Please indicate how the test categorized Cc1ccc2nc(Cl)c(Cn3nnnc3SCc3ccccc3)cc2c1 .
0.0

What did this assay record as the result for CN(C)c1ccc(-c2cc(-c3ccc(Nc4nc(Nc5ccc(Cl)cc5)nc(Nc5ccc(Cl)cc5)n4)cc3)nc(N)c2C#N)cc1 ?
1.0

Which outcome was assigned to N/C(=N\c1nc2ccccc2s1)NC(=NC1CCCCC1)NC1CCCCC1 in this test?
1.0

---

Tested on: A498 renal
Test details: NCI-60 one-dose screen, 48 h (100 = growth as untreated, 0 = no growth, -100 = all killed)
Condition: 10 µM unless noted
This is part of a sample that, as a whole, favours compounds with a hit. Of some 83,000 tested, about 20% had one in any assay.
Readout: growth (%)
Lab book: enter the figure in %, no units written.

Would you please look over these solved cases?
1. O=C1CC2C=CCN2C=C1NC(=O)C1CCCCC1 (stereo unspecified); 128
2. O=C(CSc1nc2ccc([N+](=O)[O-])cc2[nH]1)Nc1ccc(Br)cc1; 30.9
3. CC(=O)N(Cc1ccccc1)c1nc2ccc(O)c(CN(C)C)c2s1; 66
4. CCNc1nc(-c2ccc(F)cc2)c(C#N)c(=O)n1C; -9.07
5. CCCCCCCCCCCCCCCCCCOc1ccccc1CC(=O)NCC[N+]1(C)CCOCC1; 67.4
6. CN(Cc1cnc2nc(N)nc(N)c2n1)c1c(Cl)cc(C(=O)NC(CCC(=O)O)C(=O)O)cc1Cl (stereo unspecified); 47.7

Entry O=C1CCC(C(=O)NN(c2ccccc2)c2ccccc2)N1 (stereo unspecified) — recorded growth = 103

compound C=CC(=O)NCCOc1cccc(Nc2cc(NCCCNC(=O)C3CCC3)c(Br)cn2)c1 , growth observed: -54

Data point: COc1ccc(NC(=O)c2sc3nc4c(cc3c2N)CCCC4)cc1 ; growth = 5.75

// sample Oc1c(CN2CCCC2)cc(COCc2ccccc2)c2cccnc12 , its growth was 19.3

CC1COCC(C)N1C1=C(Cl)C(=O)c2ccccc2C1=O (stereo unspecified) has a reported growth of 109

---

Tested on: NCI-H226 lung
Test details: NCI-60 one-dose screen, 48 h
Condition: 10 µM unless noted
About 83,000 compounds went through this panel and 20% of them were active in at least one assay; those are over-represented in the sample as a whole. The source made the active and inactive calls. The calls were made as follows: active = growth percent below 10; inactive = the rest.
In this exercise, the only acceptable responses are active, inactive

Take a look at these entries with their results.
1. O=C(O)CCCc1cnc2c3sccc3nc(SCc3c(Cl)cccc3Cl)n12; inactive
2. O=C(CSc1nc2ccc([N+](=O)[O-])cc2[nH]1)Nc1cccc([N+](=O)[O-])c1; inactive
3. O=C1CCCc2nc3sc4c(=O)n(-c5ccccc5Cl)nnc4c3cc21; inactive

Which outcome did this test record for the compound CN1CCN(c2ccc3c(c2)nc(NNC(=O)c2cnccn2)c2cccn23)CC1 ?
inactive

Could you please tell me the result logged for COc1ccc2c(c1)c(-c1nonc1-c1cn(C)c3ccc(OC)cc13)cn2C in this assay?
inactive

Could you kindly confirm the outcome this assay logged for Cn1cc(/C=C2/C(=O)Nc3ccccc32)c2ccccc21 ?
inactive

Record request — test call for S=c1[nH]c2cc(Cl)ccc2o1
inactive

Please let me know the test result on file for CCCCCCOC(=O)CC1=C(C)/C(=C/c2[nH]c(-c3ccc[nH]3)cc2OC)N=C1C .
active

Recorded test outcome, item C#CCn1cnc2c(Nc3cccc(NC(=O)CCl)c3)ncnc21
inactive

---

Test system: NCI-H226 lung
Test details: NCI-60 one-dose screen, 48 h (100 = growth as untreated, 0 = no growth, -100 = all killed)
Condition: 10 µM unless noted
This is part of a sample that, as a whole, favours compounds with a hit. Of some 83,000 tested, about 20% had one in any assay.
Readout: growth (%)
Give just the number in %; leave the unit off.

1. CCNC(=O)Oc1ccc(/C(=C(/C)Cc2ccc(OC)cc2)c2ccc(OCCN3CCCC3)cc2)cc1; 90.1
2. CC1(C)CC2=C3C=C[C@@H]4[C@@]5(C)CC[C@H](O)C(C)(C)[C@@H]5CC[C@@]4(C)[C@]3(C)CC[C@@]2(C(=O)O)CC1=O; 32.3
3. CN1CCN(Cc2ccc(NC(=O)c3cncc(C#Cc4cncc5[nH]ncc45)c3)cc2C(F)(F)F)CC1; -43.3

Note: attention shifts to another entry.
Looking up N#CCC1=NC(c2cccs2)=Nc2ccccc2S1 , I found its growth recorded as 82.4

---

Test system: MCF7 breast
Test details: NCI-60 one-dose screen, 48 h (100 = growth as untreated, 0 = no growth, -100 = all killed)
Condition: 10 µM unless noted
About 83,000 compounds went through this panel and 20% of them were active in at least one assay; those are over-represented in the sample as a whole.
Readout: growth (%)
Numbers only here, please. The scale is %.

1) CCOC(=O)c1c(C)nn(CC(O)c2ccccc2)c1NC(=O)Nc1cccc(F)c1 (configuration not stated); 81.4

Record CCCCn1sc(=O)n(Cc2ccc(CNC(=O)OCc3ccc4c(Cl)cc(Cl)c(O)c4n3)cc2)c1=O , field growth: 63.5

Value of growth reported for the molecule CCSC1=CC(=O)c2ccccc2C1=O is 12.9

Briefly, growth measured for COc1ccc2c(c1)c(-c1ccc(-c3cn(C)c4ccc(OC)cc34)[nH]1)cn2C : 38.9

Reported growth for C[C@@H]1CC[C@@]2(OC1)O[C@H]1C[C@H]3[C@@H]4CC=C5C[C@@H](O[C@@H]6O[C@H](CO)[C@@H](O[C@@H]7O[C@@H](CO)[C@H](O)[C@H]7O)[C@H](O)[C@H]6O[C@@H]6O[C@@H](C)[C@H](O)[C@@H](O)[C@H]6O)CC[C@]5(C)[C@H]4CC[C@]3(C)[C@H]1[C@@H]2C was -87.9

Please fill in: growth reported for N#Cc1c(-c2ccccc2)c(C#N)c2c(C#N)c(N)nn2c1N = 15.9

Lab note: measured growth of COc1ccc2[nH]cc(-c3nc(-c4cn(C)c5ccncc45)cs3)c2c1 was -39.4

---

Tested on: HOP-62 NSCLC
Test details: NCI-60 one-dose screen, 48 h (100 = growth as untreated, 0 = no growth, -100 = all killed)
Condition: 10 µM unless noted
The panel holds about 83,000 compounds, 20% with a hit somewhere; the sample as a whole holds those more often.
Classify by measured growth: 1.0 if it is equal to or exceeds 60%, 0.0 if it is smaller.

1. O=C(N=Nc1c(O)[nH]c2ccccc12)Nc1ccc(Cl)cc1; 1.0
2. COC(=O)C1=Nc2ccc(F)cc2/C1=C\c1sc(Nc2ccc(O)cc2)nc1O; 1.0
3. CCOC(=O)c1c(C)nn(CC(O)c2ccccc2)c1NC(=O)Nc1cccc(F)c1 (stereo not given); 1.0

Does growth meet or surpass 60% for Cc1ccc(/C=C2\CN(C(=O)C(Cl)Cl)C/C(=C\c3ccc(C)cc3)C2=O)cc1 ?
0.0

Reported growth at or above 60%? Cc1ccc(-c2nc(C(Cl)Cl)nc3cc(C)nn23)cc1
0.0

Dear colleague, could you confirm whether CCOC(=O)c1c(NC(=O)c2ccc(C(C)(C)C)cc2)sc2cc(O)ccc12 has growth at or above 60%?
1.0

Determine whether measured growth meets or exceeds 60% for CCCCCCCCn1ccc2cc(NC(=O)Cn3cc(CN4CCC(C)CC4)nn3)ccc21
1.0

For this molecule, is measured growth 60% or higher? O=C(Cn1nnc([N+](=O)[O-])n1)c1ccccc1
1.0

Textbook exercise: given the entry COc1ccc(/C=C/C(=O)c2ccc(Nc3nc(Nc4ccc(F)cc4)nc(Nc4ccc(Cl)cc4)n3)cc2)cc1 , state whether its growth is greater than or equal to 60%.
1.0

Would you say O=P(O)(O)OCC1OC(n2cnc3c(NCc4ccccc4)ncnc32)C(O)C1O (stereo not given) shows growth at minimum 60%?
0.0
